Tested on: HIV-1 (H9IIIB virus) replication in MT4-GFP cells
Assay: Antiviral Persistence assay
Conditions: Human immunodeficiency virus 1, read-out: IC50 72 h (nM)
ENDPOINT: IC50

Would you please look over these solved cases?
{"columns": ["COMPOUND", "IC50"],
 "data": [
  ["C#C[C@]1(CO)O[C@@H](n2cc(Br)c3c(N)ncnc32)C[C@@H]1O", "> 42000 nM"],
  ["Cc1cn([C@H]2C[C@H](N=[N+]=[N-])[C@@H](CO)O2)c(=O)[nH]c1=O [AZT, 3′-azido-3′-deoxythymidine, reference compound]", "4710 nM"],
  ["C#C[C@]1(CO)O[C@@H](n2cc(Cl)c3c(N)ncnc32)C[C@@H]1O", "970 nM"],
  ["C#C[C@]1(CO)O[C@@H](c2ccc3c(N)ncnn23)C[C@@H]1O", "1950 nM"]
]}

Query block: Entry under review: C#C[C@]1(CO)O[C@@H](c2cnc3c(N)ncnn23)C[C@@H]1O . Reported IC50?
Result block: 350 nM

###

Test system: HIV-1 (H9IIIB virus) replication in MT4-GFP cells
Test: Antiviral Persistence assay
Conditions: Human immunodeficiency virus 1, read-out: IC50 72 h (nM)
Collected IC50 values appear next to each entry.
// note: answer is a bare numeric in nM

{"columns": ["COMPOUND", "ENDPOINT", "VALUE UNITS", "REPORTED VALUE"],
 "data": [
  ["N#C[C@]1(CO)O[C@@H](n2ccc3c(N)ncnc32)C[C@@H]1O [Example 10]", "IC50", "nM", 1800]
]}

Read the next record carefully.
Query block: Can you share its IC50? I mean this compound: C#C[C@]1(CO)O[C@@H](n2ccc3c(N)nc(F)nc32)C[C@@H]1O [Example 9]
Result block: 270

###

Each entry below carries its reported IC50.
Target: HIV-1 RT enzyme (Human immunodeficiency virus type 1 group M subtype B)
Construct: Full-length wild-type and 2 mutant RT proteins were expressed in Escherichia coli BL21(DE3) cells and purified; made in house; host or cells: Escherichia coli BL21(DE3)
Assay: RT Polymerase Assay
Type: biochemical
Write the quantity with the unit trailing the number.

Query block: Which IC50 value is on record for C#C[C@]1(COP(=O)(O)OP(=O)(O)OP(=O)(O)O)O[C@@H](c2cnn3c(N)ncnc23)C[C@@H]1O [Example 20, triphosphate] ?
Result block: 1.29 µM

Query block: Consider the compound shown here: C#C[C@]1(COP(=O)(O)OP(=O)(O)OP(=O)(O)O)O[C@@H](c2ccc3c(N)ncnn23)C[C@@H]1O [Example 19, triphosphate] What is its recorded IC50?
Result block: 3.54 µM

Query block: Which IC50 value is on record for N#C[C@]1(COP(=O)(O)OP(=O)(O)OP(=O)(O)O)O[C@@H](n2ccc3c(N)ncnc32)C[C@@H]1O [Example 18] ?
Result block: 4.15 µM

###

Each entry below carries its reported Fold shift IC50 72 h/24 h.
System: HIV-1 (H9IIIB virus) replication in MT4-GFP cells
Assay: Antiviral Persistence assay
Details: ratio of IC50 72 h to IC50 24 h
Format: numeric value only, no unit, no commentary.

Please review the entries below; each comes with its answer.
{"columns": ["COMPOUND", "MEASURED TARGET", "REPORTED VALUE"],
 "data": [
  ["C#C[C@]1(CO)O[C@@H](n2cc(C)c3c(N)ncnc32)C[C@@H]1O", "HIV-1 (H9IIIB virus) replication in MT4-GFP cells", 5.3],
  ["N#C[C@]1(CO)O[C@@H](n2ccc3c(N)ncnc32)C[C@@H]1O", "HIV-1 (H9IIIB virus) replication in MT4-GFP cells", 10.5],
  ["C#C[C@]1(CO)O[C@@H](n2cc(I)c3c(N)ncnc32)C[C@@H]1O", "HIV-1 (H9IIIB virus) replication in MT4-GFP cells", 1],
  ["C#C[C@]1(CO)O[C@@H](c2cnn3c(N)ncnc23)C[C@@H]1O", "HIV-1 (H9IIIB virus) replication in MT4-GFP cells", 10.9],
  ["C#C[C@]1(CO)O[C@@H](n2ccc3c(N)ncnc32)C[C@@H]1O", "HIV-1 (H9IIIB virus) replication in MT4-GFP cells", 45],
  ["C#C[C@]1(CO)O[C@@H](c2cnc3c(N)ncnn23)C[C@@H]1O", "HIV-1 (H9IIIB virus) replication in MT4-GFP cells", 9.2],
  ["C#C[C@]1(CO)O[C@@H](n2ccc3c(N)nc(N)nc32)C[C@@H]1O", "HIV-1 (H9IIIB virus) replication in MT4-GFP cells", 34.5],
  ["C#C[C@]1(CO)O[C@@H](n2ccc3c(N)nc(F)nc32)C[C@@H]1O", "HIV-1 (H9IIIB virus) replication in MT4-GFP cells", 7.3]
]}

Query block: For the compound C#C[C@]1(CO)O[C@@H](c2ccc3c(N)ncnn23)C[C@@H]1O , what Fold shift IC50 72 h/24 h is on record?
Result block: 157

Query block: Can you look up the measured Fold shift IC50 72 h/24 h of C#C[C@]1(CO)O[C@@H](n2ccc3c(N)nc(Cl)nc32)C[C@@H]1O for me?
Result block: 37.5

Query block: Quick one: Fold shift IC50 72 h/24 h for C#C[C@]1(CO)O[C@@H](n2cc(Cl)c3c(N)ncnc32)C[C@@H]1O ?
Result block: 9.8

Query block: Item C#C[C@]1(CO)O[C@@H](n2cc(F)c3c(N)ncnc32)C[C@@H]1O has what recorded Fold shift IC50 72 h/24 h?
Result block: 29

Query block: I would be grateful if you could share the reported Fold shift IC50 72 h/24 h for Cc1cn([C@H]2C[C@H](N=[N+]=[N-])[C@@H](CO)O2)c(=O)[nH]c1=O [AZT, 3′-azido-3′-deoxythymidine, reference compound] .
Result block: 127
